Test system Prothrombin (Homo sapiens), Ki listed for each of the molecules.
I only need the number, in nM, no unit after it.

Observed Ki on Prothrombin (Homo sapiens) for CCCc1ccc(S(=O)(=O)N[C@@H](Cc2ccc(C(=N)N)s2)C(=O)N(C)C2CCCC2)cc1 , please.
0.6

Which measured Ki belongs to CCCc1ccc(S(=O)(=O)N[C@@H](Cc2ccc(C(=N)N)cc2)C(=O)N(C)C2CCCC2)cc1 , tested on Prothrombin (Homo sapiens)?
0.84

Request - read-out Ki | tested on Prothrombin (Homo sapiens) | molecule CN(C(=O)[C@H](Cc1ccc(C(=N)N)cc1)NS(=O)(=O)c1ccc2ccccc2c1)C1CCCC1
6.8

// fetch Prothrombin (Homo sapiens) Ki for CN(C(=O)[C@H](Cc1ccc(C(=N)N)s1)NS(=O)(=O)c1ccc2ccccc2c1)C1CCCC1
3
